B1: HDV Ribozyme (parent)
chain: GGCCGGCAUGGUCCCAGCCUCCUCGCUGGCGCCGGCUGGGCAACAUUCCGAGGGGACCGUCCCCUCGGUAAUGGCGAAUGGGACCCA

# Variants of: B1
# ASSAY_SUMMARY: self-cleavage, relative activity (ratio to wild type); higher = more cleavage; co-transcriptional
Below, each entry is listed alongside its reported self-cleavage.

ITEM_SEQUENCE: GGCCGGCAUGGUCCCAGCCUUCUAGCUGGCGCCGGCUGGGCAACAUUCCGAGGGGACCGUCCCCUCGGUAAUGGCGAAUGGGACCCA
self-cleavage: 0.0997
//
ITEM_SEQUENCE: GGCCGGCAUGGUCCCAGCCGCCUCGCUGGCGCCGGCUGGGCAACAUUCCGAGGGGACCGUCCCCUCGGUAAUGGCGAAUGGGCCCCA
self-cleavage: 0.158
//
ITEM_SEQUENCE: GGCCGGCAUGGUCCCAGCCUCCUCGCUGGAGCCGGCUGGGGAACAUUCCGAGGGGACCGUCCCCUCGGUAAUGGCGAAUGGGACCCA
self-cleavage: 0.0875
//
ITEM_SEQUENCE: GGCCGUCAUGGUCCCAGCCUCCUCGCUGGCGCCGGCUGGGCAACAUUCCGAGGGGACCGUCCCCUCGGUAAUGUCGAAUGGGACCCA
self-cleavage: 0.151
//
ITEM_SEQUENCE: GGCCGGCAUGGUCCCUGCCUCCUCGCUGGCGACGGCUGGGCAACAUUCCGAGGGGACCGUCCCCUCGGUAAUGGCGAAUGGGACCCA
self-cleavage: 0.177
//
ITEM_SEQUENCE: GGCCGGCAUGGUCCCAGCCUCCUCGCUGGCGCCGGCUGGGCAACAUUCCGAAGGGACCGUCCCCUAGGUAAUGGCGAAUGGGACCCA
self-cleavage: 1.09
//
ITEM_SEQUENCE: GGCCUGCAUGGUCCCAGCCUCCUCGCUGGCGCCGGCUGGGCAACAUUCCGAGGGGACCGUCCCCUCGGUAAUGGCGAAUGGGACCCA
self-cleavage: 0.469
//
ITEM_SEQUENCE: GGCCGGCAUGGUCCCAGCCUCCUCGCUGGCGCCGGCUGGACAACAUUCCGAGGCGACCGUCCCCUCGGUAAUGGCGAAUGGGACCCA
self-cleavage: 0.926
//
ITEM_SEQUENCE: GGCCGGCAUGGUCCCAGCCUCUUCGCUGGCGCCGGCUGGGCAACAUUCCGAGGGGACCCUCCCCUCGGUAAUGGCGAAUGGGACCCA
self-cleavage: 0.566
//
ITEM_SEQUENCE: GGCCGGCAUGGUCCCAGCCUCCUCGCUGGCGCCGGCUGGGCAACAUUCCGAGGGCACCGUCCCCUCGGUAAAGGCGAAUGGGACCCA
self-cleavage: 0.743
//
ITEM_SEQUENCE: GGCCGGCAUGGUCCCAGCCUCCUCGCUGGCGCCGGCUGGGCAACAUGCCGAGGGGACCGACCCCUCGGUAAUGGCGAAUGGGACCCA
self-cleavage: 1.33
//
ITEM_SEQUENCE: GGCCGGCAUGCUCCCAGCCUCCUCGCUGGCGCCGGCUGGGCAACAUUCCGAGGGGACCGUCCCCUCUGUAAUGGCGAAUGGGACCCA
self-cleavage: 0.323
//
ITEM_SEQUENCE: GGCCGGCAUGGUGCCAGCCUCCUCGCUGGCGCCGGCUGGGCAACAUUCCGAGGGGACCGUCCGCUCGGUAAUGGCGAAUGGGACCCA
self-cleavage: 0.133
//
ITEM_SEQUENCE: GGCCGGCAUUGUCCCAGCCUCCUCGCUGGCGCCGGCUGGGCAACAUUCCGAGGGGACCGUCCCCUCGGUAAUGGCGAAAGGGACCCA
self-cleavage: 0.352
//
ITEM_SEQUENCE: GGCCGGCAUGGUCCCAGCCACCUCGCUGGCGCCGGCUGGGCAACAUUCCGAGGGGACCGUCCCCUCGGUAAUGGCGAAUGGGACUCA
self-cleavage: 0.0405
//
ITEM_SEQUENCE: GGCCGGCAUGGUCCCUGCCUCCUCGCUGGCGCCGGCUGGGCAACAUUCCGAGGGGACCGUCCCCUCGGUAAUGGCGAAUGGGACCCC
self-cleavage: 1.04
//
ITEM_SEQUENCE: GGCCGGCAUGGUCCCAGCCUCCUCGCUGGCGCCGGCUAGGCAACAUUCCGAGGGGACCAUCCCCUCGGUAAUGGCGAAUGGGACCCA
self-cleavage: 0.0801
//
ITEM_SEQUENCE: GGCCGGCAUGGUGCCAGCCUCCUCGCUGCCGCCGGCUGGGCAACAUUCCGAGGGGACCGUCCCCUCGGUAAUGGCGAAUGGGACCCA
self-cleavage: 0.0415
//
ITEM_SEQUENCE: GGCCGGCAUGGUCCCGGCCUCCUCGCUGGCGCCGGCUGGGCAACAUUCCGAGGGGACCGUCCCCUCGGUAAUGGCUAAUGGGACCCA
self-cleavage: 1.29
//
ITEM_SEQUENCE: GGCCGGCAUGGUCCCAGCCUCCUCGCUGGCGCCGGCUGGGCAACACUCCCAGGGGACCGUCCCCUCGGUAAUGGCGAAUGGGACCCA
self-cleavage: 0.932
//
ITEM_SEQUENCE: GGACGGCAUGGUCCCAGCCUCCUCGCUGGCGCCGGCUGGGCAACAUUCCGAGGUGACCGUCCCCUCGGUAAUGGCGAAUGGGACCCA
self-cleavage: 0.453
//
ITEM_SEQUENCE: GGCCGGCAUGGUCCCAGCCUCCUCGCUGGCGCCGACUGGGCAACAUUCCGAGGAGACCGUCCCCUCGGUAAUGGCGAAUGGGACCCA
self-cleavage: 0.349
//
ITEM_SEQUENCE: GGCCGGCAUGGUCCCAGCCUCCUCGCUGGCGCCCGCUGGGCAACAUUCCGAGGGGACCGUCCCCUCAGUAAUGGCGAAUGGGACCCA
self-cleavage: 0.211
//
ITEM_SEQUENCE: GGCCGGCAUGAUCCCAGCCUCCUCGCUGGCGCCGGCCGGGCAACAUUCCGAGGGGACCGUCCCCUCGGUAAUGGCGAAUGGGACCCA
self-cleavage: 0.381
//
ITEM_SEQUENCE: GGCCGGCAUGGUCCCAGCCUCCUCGCUGGCGCCGGCUGGGCCACAUUCCGAGGGGACCGUCCCCUCGGUAAUGGCGAAUCGGACCCA
self-cleavage: 0.101
//
ITEM_SEQUENCE: GGCCGGCAUGGUCCCAGCGUCCUCGCUGGCGCCGGCUGGGCAACAUUCCGAGGGGACCGUCCCCUCGGUAAUGGCCAAUGGGACCCA
self-cleavage: 0
//
ITEM_SEQUENCE: GGCCGGCAUGGUCCCAGCCUCCUCGCUGGCGCCGGCUGGGCAACAUUGCGAGGGGACCGUCCCCUCGGUAAUGGCGAAUUGGACCCA
self-cleavage: 0.244
//
ITEM_SEQUENCE: GGCCGGCAUGGUCCCACCCUCCUCGCUGGCGCCGGCUGGGCAACAUUCCGAGGGGACCGUCCCCUCGGUAAUGUCGAAUGGGACCCA
self-cleavage: 0.0554
//
ITEM_SEQUENCE: GGCCGGCAUGGUCCCAGCCUCCUCGCUGGCGCCGGCUGGGCAACAUUCCGAGGGGACGGUCCACUCGGUAAUGGCGAAUGGGACCCA
self-cleavage: 0.813
//
ITEM_SEQUENCE: GGCCGGCAUGCUCCCAGCCUCCUCGCUGGCGCCGGCUGGGCAACAUUCCGAGGGGACCGUCCCCUCGGUAAUGGCGCAUGGGACCCA
self-cleavage: 0.128
//
ITEM_SEQUENCE: GGCCGGCAUGGUCCCAGCCUCCUCGCUGGCGCCGGCUGGGCAACAUUCCGAGGGGACCGUCCCCGCGGUAAUGGCGACUGGGACCCA
self-cleavage: 0.119
//
ITEM_SEQUENCE: GGCCGGCAUGGUCCCAGCCUCCUCGCUCGCGCCGGCUGGGCAACAUUCCGAGGGGACUGUCCCCUCGGUAAUGGCGAAUGGGACCCA
self-cleavage: 0.0369
//
ITEM_SEQUENCE: GGCCGGCAUGGUCCCAGCCUCCUCGCUGGCGCCGGCUGGGCAACAUUCCGUGGGGACCGUCCCCUCGGUAAUGGCGAAUGGGACCCU
self-cleavage: 1.03
//
ITEM_SEQUENCE: GGCCGGCAUGGUCCCAGCCUCCUCGCUGGCGCUGGCUGGGCAACAUUCCGAGGGGACCCUCCCCUCGGUAAUGGCGAAUGGGACCCA
self-cleavage: 1.01
//
ITEM_SEQUENCE: GGCCGGCAUGGUCCCAGCCCCCUCGCUGGCGCCGGCUGGGCAACAUUCAGAGGGGACCGUCCCCUCGGUAAUGGCGAAUGGGACCCA
self-cleavage: 0.172
//
ITEM_SEQUENCE: GGCCGGCAUGGUCCCAGCCUCCUCGCUGGCGCCGGCUGGGCAAUAUUCCGAGGGGACCGUCCCGUCGGUAAUGGCGAAUGGGACCCA
self-cleavage: 0.862
//
ITEM_SEQUENCE: GGCCGGCAUGGUCCCAGCCUCAUCGCUGGCGCCGGCUGGGCAACAUUCCGAGGGGACCGACCCCUCGGUAAUGGCGAAUGGGACCCA
self-cleavage: 0.326
//
ITEM_SEQUENCE: GGCCGGCAUGGUCCCAGCCACCUCGCUGGCGCCGGCUGGGCAACAUUCCAAGGGGACCGUCCCCUCGGUAAUGGCGAAUGGGACCCA
self-cleavage: 0.0449
//
ITEM_SEQUENCE: GGACGGCAUGGUCCCAGCCUCCUCGCUGGCGCCGGCUGGGCAACAUUCCGACGGGACCGUCCCCUCGGUAAUGGCGAAUGGGACCCA
self-cleavage: 0.676
//
ITEM_SEQUENCE: GGCCGGCAUGGUCCCAGCCUCCUCGCUGGCGCCGGCUGGGCAACAUUCCGAGGGGACCGUCCCCUCGGCAAUGGCGAAUGUGACCCA
self-cleavage: 0.369
//
ITEM_SEQUENCE: GGCCGGCAUGGUCCCAGCCUCCUCGCUCGCGCCGGCUGGGCCACAUUCCGAGGGGACCGUCCCCUCGGUAAUGGCGAAUGGGACCCA
self-cleavage: 0.0437
//
ITEM_SEQUENCE: GGCCGGCAUGGUCGCAGCCUCCUCGCUGGCGCCGGCUGGGCUACAUUCCGAGGGGACCGUCCCCUCGGUAAUGGCGAAUGGGACCCA
self-cleavage: 0.252
//
ITEM_SEQUENCE: GGCCGGCAUGGUCCCAGCCUCCUCGCUGGCGCCGGCUGGGCAACAUUCCGAGUGGACCGUCCCCUCGGUAAUGGCGAAUGGGGCCCA
self-cleavage: 0.739
